From: the nanobody polyreactivity screen of Harvey et al. (2022)

assay: yeast display, Sf9 membrane polyspecificity reagent, FACS + sequencing; frameworks hold sequencing errors
observed property: polyreactivity (PSR sort gate)

>  <seq text>
QVQLVESGGVLVQAGGSLRLSCAASGSTIPYNTMGWYRQAPRKERELVAAITRTSYADTVKGRFTISRDNAKNTVYLEMISLKREDTAVYYCAADKSFYYYLFGYDYWGQGTQVTVSS

>  <observed property>
polyreactivity (PSR sort gate)

>  <value observed>
low polyreactivity

$$$$
>  <seq text>
QVQLVESGGGLVQAGGSLRLSCAASGSILGLNAMGWYRQAPGKERELVASISRRGGSTRYADSVKGRFTISRDNAKNTVYLQMNSLKPEDTAVYYCNAYHWDGDGVFYEYDYWGQGTQVTVSS

>  <observed property>
polyreactivity (PSR sort gate)

>  <value observed>
high polyreactivity

$$$$
>  <seq text>
QVQLVESGGGLVQAGGSLRLSCEASGRIFDDNDMGWYRQAPGKERELVAAISSGDSTKYADSVKGRFTITRDNAKNTVYLQMNSLKPEDTAVYYCAAERNHGLVGSESVGRNDYWGQGTQVTVSS

>  <observed property>
polyreactivity (PSR sort gate)

>  <value observed>
low polyreactivity

$$$$
>  <seq text>
QVQLVESGGGLVQAGGSLRLSCAASGSIFPIYTMGWYRQAPGKERELVAAITYNAGSTYYADSVKGRFTISRDNAKNTVYLQMNSLKPEDTAVYYCAADRYYDRTFPGYDYWGQGTQVTVSS

>  <observed property>
polyreactivity (PSR sort gate)

>  <value observed>
low polyreactivity

$$$$
>  <seq text>
QVQLVESGGGLVQAGGSLRLTCAASGSIFDFYAMGRYRQAPGQERELVAAISGSGGSTYYADSVKGRFTISRDNGKNTVYFQMDSLKPEDTAVYYCSYYYWGQGTQVNVSS

>  <observed property>
polyreactivity (PSR sort gate)

>  <value observed>
low polyreactivity

$$$$
>  <seq text>
QVQLVETGGGLVQAGGSLRLSCAASGPTFYANAKGWYRQAPGKERELVAVISWGSGSTYYADSVKGRFTISRDNAKNTVYLQMNSLKPEDTAVYYCAKSFYYEGTGDYWGQGTQVTVSS

>  <observed property>
polyreactivity (PSR sort gate)

>  <value observed>
low polyreactivity

$$$$
>  <seq text>
QVQLVESGGGLGQAGGSLRLSCAASGRTFYYYTMGWYRPAPGKERELVAAITHGGSTYYADSVKGRFTISRDNAQNTVYLQMNSLKPEDTAVYSCTAVYHYPYEYWGQGTQVTVSS

>  <observed property>
polyreactivity (PSR sort gate)

>  <value observed>
high polyreactivity

$$$$
>  <seq text>
QVQLVESGGGLVQAGGSLRLSCAASGSTFRSNAMGWYRQAPGKERELVAAISSRVGTTYYADSVKGRFTISRDNAKNTVYLQMNSLKPEDTAVYYCAAQGWRYYRTVVPMDYWGQGTQVTVSS

>  <observed property>
polyreactivity (PSR sort gate)

>  <value observed>
low polyreactivity

$$$$
>  <seq text>
QVQLVESGGGLVQAGGSLRLSCAASGRIFYYYAMGWYRQAPGKERELVAAISQRGGRTYYADSVKGRFTISRDNAKNTVYLQMYSLNQEDPAVYYCNVAGVVYPWYYYWGQGTQVTVSS

>  <observed property>
polyreactivity (PSR sort gate)

>  <value observed>
high polyreactivity

$$$$

* * *

assay: yeast display, Sf9 membrane polyspecificity reagent, FACS + sequencing; frameworks hold sequencing errors
observed property: polyreactivity (PSR sort gate)

>  <seq text>
QVQLVESGGGLVQAGGSLRLSCAASGIIFPFYAMGWYRKAPGKERELVAAITSDGNTNYADSVKGRFTISRDNAKNTVYLQMNSLKPEDTAVYYCNAETQYGVLSWHSTRHEYWGQGTQVTVSS

>  <observed property>
polyreactivity (PSR sort gate)

>  <value observed>
low polyreactivity

$$$$
>  <seq text>
QGQLVESGGGLVQAGGSLRLRSAASGRTFNYYAMGWYRQAHGKERELVATSSWSGVSTRYADSVKGRFTISRDNAKNTVYLEMNSLNPEDTAVYYCNAGYSKRSFYSAYGYWGEGTQVTVSS

>  <observed property>
polyreactivity (PSR sort gate)

>  <value observed>
high polyreactivity

$$$$
>  <seq text>
QVQLEESGGCLVQAGGSLRLSCAASGSIFRIYAMGWYRQAPGKEREFVAAISSRGGRTYYAYSVKGRFTISRDNAKNTVYLQMNSLKPEDTAVYYCNARATRGSYYEYEYWGQGTQVTVSS

>  <observed property>
polyreactivity (PSR sort gate)

>  <value observed>
high polyreactivity

$$$$
>  <seq text>
QVQLVESGGGLVQAGGSLRLSCAASGFTIWPYAMGWYRQPPGKERELVAGITRNGGSTYYADSVKGRFTISRDNAKNTVYLQMNSLKPEDTAVYYCNTKYAVEFDYWGQGTQVTVSS

>  <observed property>
polyreactivity (PSR sort gate)

>  <value observed>
low polyreactivity

$$$$
>  <seq text>
QVQLVESGGGLVQAGGSLRLSCAASGSTFRWYDMGGYRQAPGKEREFVAAITSSGGSTYYADSVKGRFTISRDNAKNTVYLQMNSLKPEYNAVYYCNRRYQPYSYDYWGQGTQVTVSS

>  <observed property>
polyreactivity (PSR sort gate)

>  <value observed>
high polyreactivity

$$$$
>  <seq text>
QVQLVESGGGLVQAGGSLRLSCAASGRTFRFNAMGWYRPAPGKEREFVAAITSGGGTYYADSVKGRFTISRDNAKNTVYLQMNSLKPEDTAVYYCATVGIVHHRLVAMDYWGQGTQVTVSS

>  <observed property>
polyreactivity (PSR sort gate)

>  <value observed>
low polyreactivity

$$$$
>  <seq text>
QVQLEESGGGLVQAGGSLRLSCAASGLILRTYGMGWYRQAPGKERELVAVISSGGSTYYADSVKGRFTISRDNAKNTVYLQMNSLKPEDTAVYYCAVRSSWYEGDYWGQGTQVTVSS

>  <observed property>
polyreactivity (PSR sort gate)

>  <value observed>
low polyreactivity

$$$$
>  <seq text>
QVQLVESGGGLVQAGGSLRLSCAASGSTFYGYAMGWSRQAPGKERELDAVINYRGDRTYYADSVKGRFTISRDNAKNTVYLQMNSLKPEDTAVYYCAARYRVYYLPGYEYWGQGTQVTVSS

>  <observed property>
polyreactivity (PSR sort gate)

>  <value observed>
high polyreactivity

$$$$
>  <seq text>
QVQLVESGGGLVQAGGSLRLSCAASGGIFFSYAMGWYRQAPGKERELVAAIRTNGGTTYYADSVKGRFTISRDNAKNTVYLQMNSLKPEDTAVYYCAAKQFSVTLSNYWGQGTQVTVSS

>  <observed property>
polyreactivity (PSR sort gate)

>  <value observed>
low polyreactivity

$$$$

* * *

experiment: yeast display, Sf9 membrane polyspecificity reagent, FACS + sequencing; frameworks hold sequencing errors

>  <seq text>
QVQLVESGGGLVQAGGSLRLSCAASGYTFSRYAMGWYRPAPGKERELVAAITGRGGSTYYADSVKGRFTISRDNAKNTVYLLMNSLKPEDTAVYYCAVGRYPYVWRYYYWGQGTQVTVSS

>  <polyreactivity (PSR sort gate)>
high polyreactivity

$$$$
>  <seq text>
QVQLVESGGGLVQAGGSLRLSCAASGSIFTRYAMGWYRQSPGKERELVAALSYRGGRTYYADSVKGRFTISRDNAKNTVYLQMNSLKPVDTAVYYCAAGYRFSYSPNEFYYWGQGTQVTVSS

>  <polyreactivity (PSR sort gate)>
high polyreactivity

$$$$
>  <seq text>
QVQLVESGGGLVQAGGSLRLSSAASGSIFGPYAMGWYRQAPGKERELVAAITWTGGRTYYADSVKGRFTISRDNAKKTVYLQMHSLKPEDTAVDYCAADYSPSTWYLYYTLYYYWGQGTQVTVSS

>  <polyreactivity (PSR sort gate)>
low polyreactivity

$$$$
>  <seq text>
QVQLVDSGGGLVQAGGSLRLSCAASGSTFWYNAMGWYRQAPGKERELVAANSISDGNTYYADSVKGRFTISRDNAKNTVFLQMYSLKPEDTAVYYCNAGYWYDGPDYITEYDYWGQGTQVTVSS

>  <polyreactivity (PSR sort gate)>
low polyreactivity

$$$$
>  <seq text>
QVQLVESGGGLVQAGGSLRLSCAASGRTFRTYVMGWYRQAPGKEREFVAGITWSSGSTRYADSVKGRFTISRDNAKNTVYLQMNSLKPEDTAVYYCAASRVHSYNPGYPRYYYWGQGTQVTVSS

>  <polyreactivity (PSR sort gate)>
high polyreactivity

$$$$
>  <seq text>
QDQHVESGGGLVQAGGSLRLSCAASGTIFSYYAMGWYRQAPGKERELVASISWKGTSTYYADSVKGRFTISRDNSKNTVYLQMNSLKPEDTAVYYCNVRFNYRGTYDYWGQGTQVTVSS

>  <polyreactivity (PSR sort gate)>
low polyreactivity

$$$$
>  <seq text>
LVQLVESGGRLVQAGGSLRLSCAASGNIFWYAMGWYRQAPGKERELVAAITYRGSTTYFAYSVKGRVTISRDKAKNTVYLQMNSLHPEDTAVYYCAARASYTRRHVGRPYDYWGQGTQVTVSS

>  <polyreactivity (PSR sort gate)>
high polyreactivity

$$$$
>  <seq text>
QVQLVESGGGLVQAGGSLRLSCAASGSTFLYYTMGWYRQAPGKERELVAAITNGGGSTYYADSVKGRFTISRDNAKNTVYLQMNSLKPEDTAVYYCNAPTVKYRLGYDYWGQGTQVTVSS

>  <polyreactivity (PSR sort gate)>
high polyreactivity

$$$$
>  <seq text>
QVQLVESGGGLVQAGGSLRLSCAASGIIFQRNDMGWYRQAPGKERELDANIRDGGITYADSVKGRFTISRDNAKNTVYLQMNSLKPEDTAVYYCARYDTSPGYGDQSSNAAYYYWGQVTQVTVSS

>  <polyreactivity (PSR sort gate)>
low polyreactivity

$$$$
>  <seq text>
QVQLVESGGGLVQAGGSLRLSCAASGRIFWWYVMGWYRQAPGKERELVAAITRSGVSTYYADSVKGRFTLSRDNAKNTVYLQINSLKPEDTAVYYCNVGPWPRSYAHRGYWGQVTQVTVSS

>  <polyreactivity (PSR sort gate)>
high polyreactivity

$$$$
>  <seq text>
QVQLVDSGGGLVQAGGSLRLSCAASGSTFRYNAMGWYRQAPGKERELVAAIDKRGDSTYADSVKGRFTISRDNAKNTVYLQLNSLKPEDTAVYYCAADSDSKYNYGFLWDTYEYWGQGTQVTVSS

>  <polyreactivity (PSR sort gate)>
low polyreactivity

$$$$
>  <seq text>
QVQLVESGGGLVQAGGSLRLSCAASGRTFRIYAVGWYRQAPGKERELVATIDSGGSTNYADSVKGRFTISRDNAKNTVYLQMNSLKPVDTAVYYCNAEDKPWYYLAGQAEYDSWGQGTQVTVSS

>  <polyreactivity (PSR sort gate)>
low polyreactivity

$$$$
>  <seq text>
QVQLVESGGGLVQAGGSLRLSCAASGYTFVYYAMGLYRQAPGKERELVAAITSGGRTNYADSVKGRFTISRDNAKNTVYLQMKSLKPEDTAVYYCNVDGYYLFVRGYEYWGQGTQVTVSS

>  <polyreactivity (PSR sort gate)>
low polyreactivity

$$$$
